# Experiment Description: Ratio of drug level in brain to plasma in mouse at 5 mg/kg, po after 2 hrs
# Assay type: ADME, organism-based
# Parameters: dose 5 mg/kg, route oral
# Reported Conditions: read-out: BPR
Measured Quantity: Kp at 2 h
// return just the number, without any unit appended

Quick one: Kp at 2 h of CC(C)CC[C@H](c1ncc(C(F)(F)F)cn1)N1CC[C@@H](CC(=O)O)C[C@H]1c1ccc(C(F)(F)F)cc1 ?
0.74

* * *

# Experiment Description: Oral bioavailability in po dosed mouse
# Type: ADME, organism-based
# Reported Conditions: in vivo
Measured Quantity: bioavailability
Don't forget the unit after the value.

Quick one: bioavailability of CCc1cc(Nc2nc(-c3ccc(-n4cnc(C)c4)c(F)c3)cs2)c(C)cc1C ?
49%
